# Test system: HEK293T
# protocol-description: qHTS assay to identify novel small-molecules to repurpose for Merkel cell carcinoma treatment (AID 1296009); also: nearly all actives have a fitted effect of over 60% in size
# measurement-conditions: MCC and control cell lines, CellTiter-Glo viability, 72 h; series mostly up to 44.8 µM
Inconclusive results are not listed. The source made the active and inactive calls. Calls follow the shape of the dose curve; as a rule, active = well fitted inhibition curve with a large enough effect; inconclusive = small, poorly fitted or top-dose-only effect; inactive = flat fitted curve, though single readings scatter. Where a SMILES comes first, the peptide text is derived from it. [ ]: non-standard residue; d: D form. 2Abz = Nc1ccccc1C(=O)O
observed-property: outcome

Provide only the value of recorded outcome for CC(C#N)C(C)O[C@@H]1O[C@H](CO)[C@@H](O)[C@H](O)[C@H]1O (stereo partly drawn)
inactive

Provide only the value of recorded outcome for `C=C(C)[C@H]1C[C@@H](O)C(=C)CC[C@@H](O)C(=C)[C@@H](O)C1`
inactive

Provide only the value of recorded outcome for C=C1CC2C3(C)C(OC(C)=O)CC(=O)OC(C)(C)C3C(O)C(OC(C)=O)C2(C)C2C(=O)OC(C)C(=O)C12C (stereo not drawn)
inactive

Provide only the value of recorded outcome for `COc1cccc(-n2nc(C(=O)O)cc2-c2ccc(C3CCCCC3)c(Cl)c2)c1`
inactive

Provide only the value of recorded outcome for C=C1CCC2[C@@](C)(C=O)CCC[C@]2(C)[C@H]1CC/C(C)=C/CO (stereo partly drawn)
inactive

Provide only the value of recorded outcome for CO[C@H]1C=C2C(CC[C@H](O[C@@H]3O[C@H](CO)[C@@H](O)[C@@H](O)[C@H]3O)C2(C)C)[C@]2(C)CC[C@]3(C)C([C@H](C)C(O)C(C=C(C)C)O[C@@H]4O[C@H](CO)[C@@H](O)[C@@H](O)[C@H]4O)CC[C@@]3(C)C12 (stereo partly drawn)
inactive [at 9.27 µM]

Next:
Provide only the value of recorded outcome for `CCOC(=O)[C@H]1O[C@@H]1C(=O)N[C@@H](CC(C)C)C(=O)NCCC(C)C`
inactive

Provide only the value of recorded outcome for `Cc1cc(N2CCCCC2)nc2ccccc12`
inactive

Provide only the value of recorded outcome for `CNC(=O)c1ccc2cc([C@@]3(O)CCn4cncc43)ccc2c1`
inactive

Provide only the value of recorded outcome for C=CC(C)(C)C1(CC2NC(=O)C3CCCN3C2=O)C(=O)Nc2cc3c(cc21)C=CC(C)(C)O3 (stereo not drawn)
inactive

Provide only the value of recorded outcome for C=C(C(=O)O)C1CCC(C)C2CCC(=O)OC2(C)C1 (stereo not drawn)
inactive

Provide only the value of recorded outcome for `CCOc1c2c(c(OCC)c3ccccc13)C(=O)N(c1ccc(CC(=O)NS(=O)(=O)c3ccccc3)cc1)C2`
inactive

Provide only the value of recorded outcome for C=CC(C)(O)CC/C=C(\C)C(=O)OCC1OC(OC2CCC3(C)C(CCC4(C)C3CC=C3C5CC(C)(C)C(O)CC5(C(=O)O)CCC34C)C2(C)C)C(O)C(OC2OC(CO)C(O)C(OC3OC(CO)C(O)C(OC4OC(COC5OC(CO)C(O)C(O)C5O)C(O)C(O)C4O)C3O)C2O)C1O (stereo not drawn)
inactive [at 9.27 µM]

Provide only the value of recorded outcome for `CC(C)[C@H]1CCC(CO)=C[C@@H]1/C=C(\CO)C(=O)O`
inactive

Provide only the value of recorded outcome for CC(=O)NC(C(=O)OC1CCC(C)(C)C2CC=C3C(=O)OCC3(O)C12C)C(C)C (stereo not drawn)
inactive

Provide only the value of recorded outcome for `C[C@H]1CN(C[C@H](Cc2ccccc2)C(=O)NCC(=O)O)CC[C@@]1(C)c1cccc(O)c1`
inactive

Provide only the value of recorded outcome for `O=C(O[C@H]1[C@@H]2C=CO[C@@H](O[C@@H]3O[C@H](CO)[C@@H](O)[C@H](O)[C@H]3O)[C@@H]2[C@@]2(CO)O[C@@H]12)c1ccc(O)cc1`
inactive

Provide only the value of recorded outcome for `Cc1cccc(-c2[nH]c(CNc3ccccc3F)nc2-c2ccc3ncnn3c2)n1`
inactive

Provide only the value of recorded outcome for `CCc1c(CC(N)=O)c2cc(OCCCP(=O)(O)O)ccc2n1Cc1ccccc1`
inactive

Provide only the value of recorded outcome for CC12CC34C=CC(=O)C(C)(CCC(=O)O)C3C(CC1C4)O2 (stereo not drawn)
inactive

Provide only the value of recorded outcome for CCC(C)(O)C(O)C(=O)OCc1ccc(O[C@@H]2O[C@H](CO)[C@@H](O)[C@H](O)[C@H]2O)cc1 (stereo partly drawn)
inactive

Provide only the value of recorded outcome for CCC(C)C1NC(=O)C2CCCN2C(=O)C(C(C)C)NC(=O)c2ccccc2NC(=O)C(Cc2ccc(O)cc2)NC(=O)C(C)NC(=O)C(C(C)O)NC1=O (stereo not drawn) (cyclo([2Abz]VPITAY); configuration not given here)
inactive

Provide only the value of recorded outcome for CCC(C)(O)C(O)C(=O)OCc1ccc(O[C@@H]2O[C@H](CO)[C@@H](O)[C@H](O)[C@H]2O)c(OC)c1 (stereo partly drawn)
inactive

Provide only the value of recorded outcome for COC(=O)C1C(CC(C)=O)C=CC(O)C12Oc1cc(C)cc(O)c1C2=O (stereo not drawn)
inactive

Provide only the value of recorded outcome for `COc1ccc(C)c2sc(NC(=O)c3ccncc3)nc12`
inactive

Provide only the value of recorded outcome for `c1ccc(Cc2ncc3c(n2)CCNCC3)cc1`
inactive
